assay: yeast display, Sf9 membrane polyspecificity reagent, FACS + sequencing; frameworks hold sequencing errors
measured_metric: polyreactivity (PSR sort gate)

QVQLVESGGGLVQAGGSLRLSCAASGSIFGYYAMGWYRQAPGTERELVAAINSDGSTDYADSVKGRFTISRDNAKNTVYLQMNSLKPEDTAVYYCATRYYSIFTFFISYTYDYWGQGTQVTVSS ... low polyreactivity
QVQLVESRGGLVQAGGSLRLSCAASRSTFGVNAMGWYRQAPGKERELVARISSGVRTYYADSVKGRFTISRDNAKNTVYLQMNSMIPEDTAVYYCAAVYFRGVDRAFLSYSYYYWGQGTQVTVSS ... high polyreactivity
QDQLVESGGGLVQAGCSLRLSCAASGRTFTYYAMGWYRQAPGKERELVAALSKRGGTTYYADSVKVRFSMSRDNAKNTDYLKMNSLKAVDTAVYYCATEGNLRTAGYAYDHYYWGQGTQVTVSS ... high polyreactivity
QVQLVESGGGLVQAGGSLRLSCAASGSTFVTNDMGWSRQAPGKERELVAAISSGTSTNYAYSVKGRFTISRDNAKNTVYLQMNSQKPEDTAVYYCAADSLKRYDYWGQGTQVTVSS ... low polyreactivity

Consider the record given below.
Output measured polyreactivity (PSR sort gate) for this item: QVQLVESGGGLVQAGRSLRLNCAASGLTFYKYAMGWYRQAPGKERELVAAISYRGGSTYYADSVKGRFTISRDNAKNTVSLQLNSLKPEVTAVYYCAAGYPYGGDYWGQGTQVTVSS
high polyreactivity

====

assay: yeast display, Sf9 membrane polyspecificity reagent, FACS + sequencing; frameworks hold sequencing errors
measured_metric: polyreactivity (PSR sort gate)

Past entries and their recorded results:
QVQLVESGGGLVQAGGSLRLSCAASGRIFYPYSMGWYRQAPGKERELVASINYRGGSTYYADSVNGRFTISRDNAKNTVYLQMNSLKPEDTAVYYCNAVRGFYRYSSSMGYWGQGTQVTVSS ... high polyreactivity
QVQLVESGGGLVQAGGSLRLSCAASGSIFGLYAMGWYRQAPGKERELVAAITASDGSTYYADSVKGRFTISRDNAKNTVYLQMNSLKPEDTADYYCNADAYSGYFLFDYWGQGTQVTVSS ... low polyreactivity
QVQLVESGGGLVQAGGSLRLSCAASGRTFGRNAMGWYRQAPGKERELVAAISSSADRTYYADSVKGRFTISRDNAKNNVYVEMNSLKPEDTAVYYCAARTFWGAYDYWGQGTQVTVSS ... high polyreactivity
QVQLVESGGGLVQAGGSLRLSCAASGSTFQIYTMGWYRQAPGKERELVAAITNGGGSTYYADSVKGRFTISRDNAKNTVYLQMNSLKPEDTAVYYCAAEQRYPLIILYDYWGQGTQVTVSS ... low polyreactivity

Output measured polyreactivity (PSR sort gate) for this item: QVQLVESGGGLVQAGGSLRLSCADSGFIFLGNARGWYRQAAGKERELVAASSSGGSTYADSVKGRFTISRDNAKNTVYLQMNSLKPEDTAVYYCALDPPFPAQNYHEDDYWGQGTQVTVAS
low polyreactivity

Output measured polyreactivity (PSR sort gate) for this item: QVQLVESGGGLVQAGGSLRLSCAASGSTFRHYAMGWYRQAPGKERELVAVISWGGTSTYYADSVKGRFTISRDNAKNTVYLQMKSLKPEDTAVYYCNKAYFPIFKGYEMYYWGQGTQVTVSS
low polyreactivity

Output measured polyreactivity (PSR sort gate) for this item: QVQLVESGGGLVQAGGSLRLSCAASGSIFSGYVMGWYRQAPGKERELVAAISGSGGSTYYADSVKGRFTISRDNAKNTVYLQMNSLKPEDTAVYYCNKGLSRSYWWVDYWGQGTQVTVSS
low polyreactivity
